- tested.system: UniProtKB P29275
- Sequence (P29275 whole entry): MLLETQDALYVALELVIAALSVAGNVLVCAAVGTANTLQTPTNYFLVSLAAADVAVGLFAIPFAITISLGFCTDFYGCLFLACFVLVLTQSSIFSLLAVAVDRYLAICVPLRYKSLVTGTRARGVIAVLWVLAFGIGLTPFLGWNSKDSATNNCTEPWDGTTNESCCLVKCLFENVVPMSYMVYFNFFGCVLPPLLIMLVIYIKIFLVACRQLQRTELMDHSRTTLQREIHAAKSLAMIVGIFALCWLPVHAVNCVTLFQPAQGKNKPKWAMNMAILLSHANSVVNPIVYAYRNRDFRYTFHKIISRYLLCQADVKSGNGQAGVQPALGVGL
- assay.procedure: Adenosine receptor activity assay (Table 1), A2B activity
- Assay type: biochemical
- reported.conditions: read-out: Ave A2B cAMP IC50
Consider the following compounds; for each one, report its IC50.

Could you tell me which IC50 is on file for C[C@H](Nc1nc(C(=O)NCCc2ccc(O)cc2)c2sccc2n1)c1ccccn1 ?
< 10 nM

Could you tell me which IC50 is on file for C[C@H](Nc1nc(C(=O)N2CCC(C(=O)O)C2)c2sccc2n1)c1cncc(F)c1 (some centres unmarked) ?
100 to 500 nM

Could you tell me which IC50 is on file for C[C@H](Nc1nc(C(=O)N[C@H](C)c2cccnc2)c2sccc2n1)c1cccnc1 ?
100 to 500 nM

Could you tell me which IC50 is on file for COc1ccc(CNC(=O)c2nc(N[C@@H](C)c3cccnc3)nc3ccsc23)cc1OC ?
> 500 nM

Could you tell me which IC50 is on file for Cc1cc2nc(N[C@@H](C)c3cncc(F)c3)nc(C(=O)N3CC[C@@H]3C)c2s1 ?
< 10 nM

Could you tell me which IC50 is on file for CNc1cc2nc(N[C@@H](C)c3ccccn3)nc(C(=O)N3CC[C@@H](F)C3)c2s1 ?
< 10 nM

Could you tell me which IC50 is on file for Cc1cc2nc(N[C@@H](C)c3cncc(F)c3)nc(C(=O)N3CC(N4CCCC4)C3)c2s1 ?
10 to 50 nM

Could you tell me which IC50 is on file for COc1cc(F)cc(CNc2nc(C(=O)N3CC(O)C3)c3sccc3n2)c1 ?
10 to 50 nM
